# Target of assay: T1, human cholecystokinin-1 receptor (human), P32238
# T1 chain: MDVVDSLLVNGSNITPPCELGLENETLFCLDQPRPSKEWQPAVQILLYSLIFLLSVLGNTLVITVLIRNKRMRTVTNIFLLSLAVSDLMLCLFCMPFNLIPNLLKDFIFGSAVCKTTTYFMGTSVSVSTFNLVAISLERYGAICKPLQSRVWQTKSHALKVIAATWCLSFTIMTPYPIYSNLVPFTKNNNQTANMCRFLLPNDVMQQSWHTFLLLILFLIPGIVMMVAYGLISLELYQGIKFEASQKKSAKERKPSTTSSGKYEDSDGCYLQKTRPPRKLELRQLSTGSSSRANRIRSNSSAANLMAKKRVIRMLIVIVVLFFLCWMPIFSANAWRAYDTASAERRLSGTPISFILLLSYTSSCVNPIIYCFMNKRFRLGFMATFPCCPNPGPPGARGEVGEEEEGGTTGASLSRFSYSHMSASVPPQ
# Run description: cell-based or functional assay
Starred links: 1 amine or outer side, 2 acyl side, 3 side chain; linkers in the order of their positions; H or OH if unused. Non-standard residues stand in square brackets, D forms with d. No end group written: not given here. *: point of attachment. sY = N[C@@H](Cc1ccc(OS(=O)(=O)O)cc1)C(=O)O; C18 diacid = O=C(O)CCCCCCCCCCCCCCCCC(=O)*; γGlu = O=C(O)[C@H](CCC(=O)[*:2])N[*:1]; NMeF = CN[C@@H](Cc1ccccc1)C(=O)O; AEEA = NCCOCCOCC(=O)O
Threshold-based label: EC50 (CCK-1R) under 0.2 nM gives MET, EC50 (CCK-1R) not under 0.2 nM gives NOT MET.

# example entries with known answers
| Binder | Category label |
| --- | --- |
| {C18 diacid-γGlu-AEEA-AEEA}-D[sY]LGWL[DMeAsp][NMeF]-NH2 | NOT MET |
| {C18 diacid-γGlu-AEEA-AEEA}-D[sY]LGWA[DMeAsp][NMeF]-NH2 | MET |
| {C18 diacid-γGlu-AEEA-AEEA}-D[sY]LGWI[DMeAsp][NMeF]-NH2 | MET |

Q: Is 0.2 nM strictly greater than the binder's reported EC50 (CCK-1R)? binder: {C18 diacid-γGlu-AEEA-AEEA}-D[sY]LGWP[DMeAsp][NMeF]-NH2
Result: MET

Q: Now consider D[sY]LGWV[DMeAsp][NMeF]-NH2 [Asp-sTyr-Leu-Gly-Trp-Val-DMeAsp-MePhe-amide] and answer again.
Result: NOT MET

Q: Try this binder next: D[sY]LGWA[DMeAsp][NMeF]-NH2 [Asp-sTyr-Leu-Gly-Trp-Ala-DMeAsp-MePhe-amide]
Result: NOT MET

Q: Then {C18 diacid-γGlu-AEEA-AEEA}-D[sY]LGWQ[DMeAsp][NMeF]-NH2 ?
Result: MET

Q: Another binder: {C18 diacid-γGlu-AEEA-AEEA}-D[sY]LGWV[DMeAsp][NMeF]-NH2
Result: MET

All values here come from patent US20170008928A1.
